Ref: patent US9776990B2

Catalogue of Ki values
# target_or_system: BRD4 (BDI_K57-E168) (Homo sapiens (Human), UniProt O60885)
# procedure_details: TR-FRET bromodomain binding assay, BRD4 first bromodomain
# condition_context: His-tagged BD1, 100 nM Alexa647 probe
# Protocol: A time-resolved fluorescence resonance energy transfer (TR-FRET) assay was used to determine the affinities of compounds of the Examples listed in Table 1 for each bromodomain of BRD4. […] Compound dilution series were prepared in DMSO via a 3-fold serial dilution from 2.5 mM to 42 nM. […] After a one-hour incubation at room temperature, TR-FRET ratios were determined using an Envision multilabel plate reader (Ex 340, Em 495/520). […]
Please give a number only; it is taken to be in nM.

[[record]]
compound = "Cc1[nH]c(-c2ccccc2OCc2cccnc2)c2c1C(=O)CCC2"
units_of_measure = "nM"
quantitative_result = 526

[[record]]
compound = "Cc1[nH]c(-c2cc(N)ccc2Oc2ccccc2)c2c1C(=O)CCC2"
units_of_measure = "nM"
quantitative_result = 148


Input: Any idea what its Ki is? The compound is Cc1[nH]c(-c2ccccc2OCC2CCOCC2)c2c1C(=O)CCC2
Output: 202

Input: Any idea what its Ki is? The compound is CC(=O)Nc1ccc(Oc2ccccc2)c(-c2c3c(c(C)n2C)C(=O)CCC3)c1
Output: 569

Input: Any idea what its Ki is? The compound is Cc1[nH]c(-c2ccc(S(C)(=O)=O)cc2)c2c1C(=O)CCC2
Output: 1430

Input: Any idea what its Ki is? The compound is Cc1[nH]c(-c2cc(NS(C)(=O)=O)ccc2Oc2ccccc2)c2c1C(=O)CC(CC(C)C)C2 (stereo not drawn)
Output: 151
